system: acetylcholine muscarinic M1 receptor (CHOnfat/hM1 cells) (Homo sapiens)
measurement-protocol: muscarinic FLIPR assay: intracellular calcium, potentiation of an EC20 concentration of acetylcholine
condition-set: FLIPR Ca2+, 4 min preincubation, then EC20 acetylcholine (3 nM final), read-out: IP Value (inflection point)
pEC50: −log10 of the molar value.
experimental-endpoint: pEC50

{"compound": "O=C(O)c1cn(Cc2ccc(-n3cccn3)cc2)c2c(F)ccc(F)c2c1=O", "pEC50": 6.58}

A: CCOC(=O)c1cn(Cc2ccc(-n3ccc(C(C)O)n3)cc2)c2cccc(F)c2c1=O (stereo not drawn)
B: CNc1ccc(Cn2cc(C(=O)O)c(=O)c3c(F)cccc32)cc1
Query block: Looking at A and B , which one comes out lower in pEC50 terms? Your choice should be expressed through its label.
Result block: B

###

system: acetylcholine muscarinic M1 receptor (CHOnfat/hM1 cells) (Homo sapiens, UniProt P11229)
Sequence (P11229 whole entry): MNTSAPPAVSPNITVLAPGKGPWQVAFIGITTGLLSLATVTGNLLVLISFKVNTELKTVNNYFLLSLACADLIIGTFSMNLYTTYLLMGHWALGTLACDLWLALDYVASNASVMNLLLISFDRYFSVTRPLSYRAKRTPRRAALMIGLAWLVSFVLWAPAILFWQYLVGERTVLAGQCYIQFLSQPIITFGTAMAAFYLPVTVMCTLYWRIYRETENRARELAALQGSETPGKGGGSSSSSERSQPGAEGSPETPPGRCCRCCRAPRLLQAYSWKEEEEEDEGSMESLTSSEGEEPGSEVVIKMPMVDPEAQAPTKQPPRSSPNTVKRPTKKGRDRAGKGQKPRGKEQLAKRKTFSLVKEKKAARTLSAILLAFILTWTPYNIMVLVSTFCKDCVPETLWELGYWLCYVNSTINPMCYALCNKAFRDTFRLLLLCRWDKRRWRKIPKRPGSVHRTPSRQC
measurement-protocol: muscarinic FLIPR assay: intracellular calcium, potentiation of an EC20 concentration of acetylcholine
condition-set: FLIPR Ca2+, 4 min preincubation, then EC20 acetylcholine (3 nM final), read-out: IP Value (inflection point)
experimental-endpoint: EC50 (nM)

Below are worked cases with known answers.
{"compound": "O=C(O)c1cn(Cc2ccc(-n3ccc4ncccc43)cc2)c2cccc(F)c2c1=O [Example 36]", "system": "acetylcholine muscarinic M1 receptor (CHOnfat/hM1 cells) (Homo sapiens, UniProt P11229)", "u": "nM", "EC50": 40}
{"compound": "O=C(O)c1cn(Cc2ccc(-n3ncc4ccccc43)cc2F)c2c(F)cccc2c1=O [Example 112]", "system": "acetylcholine muscarinic M1 receptor (CHOnfat/hM1 cells) (Homo sapiens, UniProt P11229)", "u": "nM", "EC50": 97}
{"compound": "O=C(O)c1cn(Cc2ccc(-n3cc(CO)cn3)cc2)c2cccc(F)c2c1=O [Example 59]", "system": "acetylcholine muscarinic M1 receptor (CHOnfat/hM1 cells) (Homo sapiens, UniProt P11229)", "u": "nM", "EC50": 39}
{"compound": "O=C(O)c1cn(Cc2ccc(-n3ccnc3)cc2)c2cccc(F)c2c1=O [Example 6]", "system": "acetylcholine muscarinic M1 receptor (CHOnfat/hM1 cells) (Homo sapiens, UniProt P11229)", "u": "nM", "EC50": 102}
{"compound": "C=Cc1cnn(-c2ccc(Cn3cc(C(=O)OCC)c(=O)c4c(F)cccc43)cc2)c1 [Example 156]", "system": "acetylcholine muscarinic M1 receptor (CHOnfat/hM1 cells) (Homo sapiens, UniProt P11229)", "u": "nM", "EC50": 25}
{"compound": "CCOC(=O)c1cn(Cc2ccc(-n3cc(C#N)cn3)cc2)c2cccc(F)c2c1=O [Example 155]", "system": "acetylcholine muscarinic M1 receptor (CHOnfat/hM1 cells) (Homo sapiens, UniProt P11229)", "u": "nM", "EC50": 378}

A: O=C(O)c1cn(Cc2ccc(-n3cnc(-c4ccccc4)c3)cc2)c2cccc(F)c2c1=O [Example 31]
B: O=C(O)c1cn(Cc2ccc(-n3cnc4ccccc43)cc2)c2c(F)ccc(F)c2c1=O [Example 2]
C: O=C(O)c1cn(Cc2ccc(N3CCCC3=O)cc2)c2cccc(F)c2c1=O [Example 3]
D: CCOC(=O)c1cn(Cc2ccc(-n3ccc(C(F)F)n3)cc2)c2cccc(F)c2c1=O [Example 153]
Query block: # rank_down: sort by EC50, max first List the labels in the requested order.
Result block: C, D, B, A

A: O=C(O)c1cn(Cc2ccc(-n3cc(CF)cn3)cc2)c2cccc(F)c2c1=O [Example 62]
B: CC(=O)c1cn(-c2ccc(Cn3cc(C(=O)O)c(=O)c4cccc(F)c43)c(F)c2)c2ccccc12 [Example 120]
C: CC(C)C(=O)Nc1ccc(Cn2cc(C(=O)O)c(=O)c3c(F)cccc32)cc1 [Example 4]
D: CN(C)c1ccc(Cn2cc(C(=O)O)c(=O)c3c(F)cccc32)cc1 [Example 150]
Query block: Ranking field: EC50; order: falling. // ordering of labels required in reply
Result block: D, C, B, A

I: O=C(O)c1cn(Cc2ccc(-n3cc(CCO)cn3)cc2)c2cccc(F)c2c1=O [Example 19]
II: Cc1nccn1-c1ccc(Cn2cc(C(=O)O)c(=O)c3cccc(F)c32)c(F)c1 [Example 109]
Query block: Which of these two has the smaller recorded EC50: I or II ? Indicate your choice by writing its label.
Result block: I
